Biological target: PHD2 (Homo sapiens, UniProt Q9GZT9)
Construct: FLAG-tagged full length PHD2 expressed in and purified from baculovirus-infected Sf9 cells; FLAG
Sequence (Q9GZT9 whole entry, species assumed): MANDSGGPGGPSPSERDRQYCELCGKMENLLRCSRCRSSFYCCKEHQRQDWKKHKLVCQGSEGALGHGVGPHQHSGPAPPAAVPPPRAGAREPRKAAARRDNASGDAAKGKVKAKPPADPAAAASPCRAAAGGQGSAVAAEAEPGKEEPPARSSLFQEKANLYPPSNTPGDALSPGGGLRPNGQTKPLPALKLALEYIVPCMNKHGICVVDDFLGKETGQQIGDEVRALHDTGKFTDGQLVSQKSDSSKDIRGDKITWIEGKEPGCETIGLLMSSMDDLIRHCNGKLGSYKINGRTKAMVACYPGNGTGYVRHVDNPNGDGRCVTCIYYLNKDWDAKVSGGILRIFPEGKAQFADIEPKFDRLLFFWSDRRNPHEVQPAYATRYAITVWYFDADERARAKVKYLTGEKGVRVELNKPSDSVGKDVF
Test: PHD2 inhibition assay (time resolved fluorescence, HIF-1α peptide hydroxylation / VHL complex detection)
Details: FLAG-tagged full length PHD2; 0.2 μM 2-oxoglutarate, 0.5 μM HIF-1α peptide
Endpoint Label: IC50

Example results:
O=C(Nc1cnc(-n2cccn2)nc1O)C1CCCCC1
0.02 to 0.1 µM
O=C(Cc1cccc(Cl)c1)Nc1cnc(-n2cccn2)nc1O
0.0005 to 0.02 µM
Oc1nc(-n2cccn2)ncc1-c1cnn(Cc2ccccc2)c1
0.1 to 10 µM
O=C(Cc1cnc(-n2cccn2)nc1O)Nc1ccc(Cl)cc1
0.1 to 10 µM
O=S(=O)(Nc1cnc(-n2cccn2)nc1O)c1cccc(Cl)c1
0.1 to 10 µM
O=C(Cc1ccc2ccccc2c1)Nc1cnc(-n2cccn2)nc1O
0.0005 to 0.02 µM
O=C(NCc1ccccc1)Nc1cnc(-n2cccn2)nc1O
0.0005 to 0.02 µM
O=S(=O)(Cc1ccc(Cl)cc1)Nc1cnc(-n2cccn2)nc1O
0.02 to 0.1 µM

Okay, next one:
Task item: For the compound CC(C)C(C(=O)Nc1cnc(-n2cccn2)nc1O)c1ccccc1 (stereo not drawn) , report IC50.
Reply: 0.02 to 0.1 µM
